Biological target: hERG (Homo sapiens, UniProt Q12809)
Sequence (Q12809 whole entry): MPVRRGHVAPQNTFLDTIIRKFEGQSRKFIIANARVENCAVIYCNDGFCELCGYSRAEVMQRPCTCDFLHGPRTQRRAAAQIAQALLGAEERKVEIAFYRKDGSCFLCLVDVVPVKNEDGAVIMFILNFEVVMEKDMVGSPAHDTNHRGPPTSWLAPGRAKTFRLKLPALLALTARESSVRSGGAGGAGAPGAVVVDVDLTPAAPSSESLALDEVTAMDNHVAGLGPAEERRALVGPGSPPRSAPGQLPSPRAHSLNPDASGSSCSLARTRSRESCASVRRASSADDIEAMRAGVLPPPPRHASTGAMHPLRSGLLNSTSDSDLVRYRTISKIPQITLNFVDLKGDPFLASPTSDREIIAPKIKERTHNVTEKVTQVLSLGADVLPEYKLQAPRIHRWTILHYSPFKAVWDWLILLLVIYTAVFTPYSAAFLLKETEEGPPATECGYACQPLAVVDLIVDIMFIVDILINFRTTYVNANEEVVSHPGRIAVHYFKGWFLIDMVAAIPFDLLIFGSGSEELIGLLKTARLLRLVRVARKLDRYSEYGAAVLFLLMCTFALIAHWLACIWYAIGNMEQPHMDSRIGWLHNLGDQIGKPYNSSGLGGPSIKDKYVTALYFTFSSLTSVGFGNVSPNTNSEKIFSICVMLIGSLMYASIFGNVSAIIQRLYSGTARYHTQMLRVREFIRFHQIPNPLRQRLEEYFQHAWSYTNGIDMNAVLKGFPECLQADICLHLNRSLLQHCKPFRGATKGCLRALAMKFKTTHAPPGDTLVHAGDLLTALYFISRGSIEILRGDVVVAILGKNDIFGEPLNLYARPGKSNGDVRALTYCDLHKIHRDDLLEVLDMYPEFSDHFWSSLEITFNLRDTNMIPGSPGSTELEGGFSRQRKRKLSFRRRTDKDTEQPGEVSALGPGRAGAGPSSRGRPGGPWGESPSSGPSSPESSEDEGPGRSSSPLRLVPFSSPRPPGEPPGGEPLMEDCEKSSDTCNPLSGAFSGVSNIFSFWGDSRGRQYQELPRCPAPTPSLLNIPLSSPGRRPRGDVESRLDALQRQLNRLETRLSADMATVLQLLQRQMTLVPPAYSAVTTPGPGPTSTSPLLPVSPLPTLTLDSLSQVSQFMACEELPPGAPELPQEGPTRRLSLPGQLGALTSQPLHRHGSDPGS
Assay: cell-based
Conditions: (-LOG10(IC50), µM)
Where a name gives a salt, the structure may show the parent alone.
# note: exactly 20 µM is not below, so it is Not satisfied; use Satisfied for IC50 strictly under it

Cc1c([N+](=O)[O-])cc2c(c1[N+](=O)[O-])C(C)(C)CC2(C)C ... Satisfied
CCCCOCCOC(=O)COc1cc(Cl)c(Cl)cc1Cl ... Not satisfied
C[C@H]1CCC[C@H](O)CCCCCc2cc(O)cc(O)c2C(=O)O1 ... Not satisfied
COc1ccc(CN2CCN(C(c3ccc(F)cc3)c3ccc(F)cc3)CC2)c(OC)c1OC [Lomerizine dihydrochloride] ... Satisfied
Clc1ccc(C(c2ccccc2Cl)C(Cl)Cl)cc1 (stereo not shown) ... Not satisfied
CC(C)(C)c1ccc(CCC=O)cc1 ... Not satisfied

###

Target: hERG (Homo sapiens, UniProt Q12809)
Experiment: cell-based
Settings: (-LOG10(IC50), µM)
Structures can show the parent of a compound that is named as a salt.
Classes are defined on IC50 with ranges 0: < 10 µM; 1: ≥ 10 µM and < 40 µM; 2: ≥ 40 µM

Nc1ccc(C(=O)OCCCOC(=O)c2ccc(N)cc2)cc1 [1,3-Propanediol, bis(4-aminobenzoate)] ... 1
CCCCCC[n+]1ccn(C)c1.O=S(=O)([N-]S(=O)(=O)C(F)(F)F)C(F)(F)F ... 2
CCOC(=O)C(Cl)Cc1cc(-n2nc(C)n(C(F)F)c2=O)c(F)cc1Cl (stereo not drawn) ... 1
CCN(CCN)c1cccc(C)c1 ... 2
CCCCOC(=O)CC(CC(=O)OCCCC)(OC(C)=O)C(=O)OCCCC [Acetyl tributyl citrate] ... 0
CCCCCCCCC=CCCCCCCCC1=NCCN1CCO ... 1
CCCCCCCCCc1ccc(O)cc1 ... 1
CCC1=C[C@@H]2CN(C1)Cc1c([nH]c3ccccc13)[C@@](C(=O)OC)(c1cc3c(cc1OC)N(C)[C@H]1[C@@](O)(C(=O)OC)[C@H](OC(C)=O)[C@]4(CC)C=CCN5CC[C@]31[C@@H]54)C2 [Vinorelbine tartrate] ... 0
CCOC(=O)COc1ccc2c(C)c(CCN(CC)CC)c(=O)oc2c1Cl [Cloricromen hydrochloride] ... 1
O=C(OC1CCCCC1)c1ccccc1C(=O)OC1CCCCC1 [Dicyclohexyl phthalate] ... 1

###

Target: hERG (Homo sapiens, UniProt Q12809)
Assay: cell-based
Conditions: (-LOG10(IC50), µM)
Where a name gives a salt, the structure may show the parent alone.
metric name: IC50 (µM)

CCCCCCCCCCCCCC[P+](CCCC)(CCCC)CCCC.[Cl-] [tributyltetradecylphosphonium chloride] ... 0.334
CC(CN(C)C)CN1c2ccccc2CCc2ccccc21 (stereo not drawn) [Trimipramine hydrogen maleate] ... 14.5
Cc1cc(C(C)(C)C)c(O)c(C(C)(C)C)c1 [Butylated hydroxytoluene] ... 20.7
C=CC(C)(O)CCC=C(C)CCC=C(C)C (stereo not drawn) [Nerolidol] ... 47.1
CCCCCCCCCC[N+](C)(CCCCCCCCCC)CCC[Si](OC)(OC)OC ... 2.65
Clc1cc(Cl)c2c(c1)N=C1CCCCCN1C2 ... 12.5

###

Biological target: hERG (Homo sapiens)
Assay: cell-based
Conditions: (-LOG10(IC50), µM)
Where a name gives a salt, the structure may show the parent alone.
metric name: IC50 (µM)

O=C(NC(=O)c1c(F)cccc1F)Nc1ccc(Oc2ccc(C(F)(F)F)cc2Cl)cc1F ... 37.4
CCc1nn(C)c(C(=O)NCc2ccc(C(C)(C)C)cc2)c1Cl ... 24.5
O=S1(=O)OC[C@@H]2[C@H](CO1)[C@]1(Cl)C(Cl)=C(Cl)[C@@]2(Cl)C1(Cl)Cl [Endosulfan sulfate] ... 16.1
COc1ccccc1N1CCN(CC(O)COc2cccc3ccccc23)CC1 (centres unmarked) ... 1.69
Cc1c(Cl)c(=O)oc2cc(OP(=O)(OCCCl)OCCCl)ccc12 ... 22.1
CCCC[P+](C)(CCCC)CCCC [Tributylmethylphosphonium methyl sulfate] ... 35.1
O=c1[nH]c2ccc([S+]([O-])CCN3CCC(Cc4ccc(F)cc4)CC3)cc2o1 (centres unmarked) ... 4.36
Cc1c(C)n(Cc2ccccc2)c2ccc(C(=O)OCCN(C)C)cc12 [Indocate] ... 14.2

###

Molecular target: UniProt Q12809
Test: cell-based
Settings: (-LOG10(IC50), µM)
Structures can show the parent of a compound that is named as a salt.
Catalogue of IC50 values
metric name: IC50

C=CC(=O)OCC(CO)(COCC(COC(=O)C=C)(COC(=O)C=C)COC(=O)C=C)COC(=O)C=C [Dipentaerythritol pentaacrylate] ... 8.28 µM
CCCCCCCCCCCCCCCCCC[n+]1ccn(C)c1 ... 4.02 µM
CC(C)CCOC(=O)C=Cc1ccccc1 [Isoamyl cinnamate] ... 39.1 µM
c1ccc(C[P+](c2ccccc2)(c2ccccc2)c2ccccc2)cc1 [Benzyltriphenylphosphonium chloride] ... 2.27 µM
Cc1cc(CCN2CCN(c3nsc4ccccc34)CC2)cc2c1NC(=O)CC2(C)C ... 16.1 µM
C[C@@H](C1=C(CCN(C)C)Cc2ccccc21)c1ccccn1 [(S)-(+)-Dimethindene maleate] ... 13.4 µM
CCCCCCCCN[C@H](C)[C@@H](O)c1ccc(SC(C)C)cc1 ... 0.29 µM
C#CCN(C)CCCOc1ccc(Cl)cc1Cl ... 8.82 µM
C#CCOC(=O)[C@@H](C)Oc1ccc(Oc2ncc(Cl)cc2F)cc1 ... 41 µM
OCC(c1ccc(Cl)cc1)c1ccc(Cl)cc1 ... 49 µM
CCCCCCCCOCCCN ... 43.6 µM
CCCCOC(=O)COC(=O)c1ccccc1C(=O)OCCCC [Butylphthalyl butylglycolate] ... 20.9 µM

###

Molecular target: hERG (Homo sapiens)
Assay: cell-based
Conditions: (-LOG10(IC50), µM)
Where a name gives a salt, the structure may show the parent alone.
Lab note - cut at 20 µM for IC50: Criterion met if strictly below, Criterion not met if not.

O=C1OC2(c3ccc(O)cc3Oc3cc(O)ccc32)c2ccccc21 ... Criterion not met
CN(C)c1ccc(C(=N)c2ccc(N(C)C)cc2)cc1 [Auramine hydrochloride] ... Criterion not met
Cc1nc2ccccn2c(=O)c1CCN1CCC(C(=O)c2ccc(F)cc2)CC1 ... Criterion met
CC1(C)CCC(C)(C)c2cc(C(=O)Nc3ccc(C(=O)O)cc3)ccc21 ... Criterion not met
CCCCCCCC[S+]([O-])C(C)Cc1ccc2c(c1)OCO2 (stereo not drawn) [Piperonyl sulfoxide] ... Criterion not met

###

IC50: recorded values
Molecular target: hERG (Homo sapiens)
Test: cell-based
Conditions: (-LOG10(IC50), µM)
Structures can show the parent of a compound that is named as a salt.
metric name: IC50 (µM)

c1ccc2c(c1)Oc1ccccc1S2 [Phenoxathiin] ... 24.5
C[C@@H]1CN(CCCn2c3ccccc3c3ccccc32)C[C@H](C)N1 [Rimcazole dihydrochloride] ... 7.86
O=C(C=Cc1ccccc1)OCCc1ccccc1 [Phenethyl cinnamate] ... 36
C[Si](Cn1cncn1)(c1ccc(F)cc1)c1ccc(F)cc1 [Flusilazole] ... 40.2

###

// reported log10 IC50 for each item listed
Target: UniProtKB Q12809
Assay: cell-based
Settings: (-LOG10(IC50), µM)
Where a name gives a salt, the structure may show the parent alone.
metric name: log10 IC50 (log10 of the value in µM)

CC(=O)NC1(c2cccc(F)c2)CCN(CC[C@@]2(c3ccc(Cl)c(Cl)c3)CN(c3ccccc3)C(=O)CO2)CC1 [SAR102779] ... 0.96
c1cc(CN2CCCCC2)cc(OCCCNc2nc3ccccc3s2)c1 [Zolantidine dimaleate] ... 0.96
O=C(CN1CCN(Cc2ccc3c(c2)OCO3)CC1)N1c2ccccc2Sc2ccccc21 [Fenoverine] ... 0.55
CCCCCCCCCCn1cc[n+](C)c1 ... 0.92
OC(c1ccc(Cl)cc1)(c1ccc(Cl)cc1)C(Cl)(Cl)Cl [Dicofol] ... 1.49
CC(NCCC(c1ccccc1)c1ccccc1)c1ccccc1 (stereo not shown) [Fendiline hydrochloride] ... 0.23
Cc1ccc(N(SC(F)(Cl)Cl)S(=O)(=O)N(C)C)cc1 [Tolylfluanid] ... 1.29
Cc1cccc(Nc2ccccc2)c1 [3-Methyl-N-phenylaniline] ... 1.72
CCCCCCCCCCCCN [Dodecylamine hydrochloride] ... 1.12
CC1(CN2CCC(n3c(=O)[nH]c4ccccc43)CC2)OCc2ccccc2-n2cccc21 (stereo not shown) [Zaldaride] ... 0.95
CC(C)COC(=O)COc1cc(Cl)c(Cl)cc1Cl [Isobutyl (2,4,5-trichlorophenoxy)acetate] ... 1.61
COc1ccc(CCN(C)CCCC(C#N)(c2cc(OC)c(OC)c(OC)c2)C(C)C)cc1OC (stereo not shown) [Gallopamil hydrochloride] ... 0.86
ClC1=C(Cl)[C@]2(Cl)[C@@H]3[C@@H](Cl)[C@H]4O[C@H]4[C@@H]3C1(Cl)C2(Cl)Cl [Heptachlor epoxide B] ... 1.59
